Molecular target: His-tagged canine IL-31 (interleukin 31) recombinant protein (canine)
Assay: BLI (Gator), biotinylated antibody on streptavidin probe, canine IL-31 as analyte
parameter: koff (s⁻¹)
Field format: number, assumed s⁻¹, no unit text.

{"binder": "7475-H1K3-canIgGB (antibody, V domains shown) VH: EVQLVESGGDLVKPGGSLRLSCVASGFTFSSYAMSWVRQAPGKGLQWVAYISNGGDYIFYADTVKGRFTISRDNARNTLYLQMNSLRSEDTAVYYCTRRGHYNTSSYWYFDVWGQGTLVTVSS VL: EIVMTQSPASLSLSQEEKVTITCKASENVGTYVSWYQQKPGQAPKLLIYGASNRYTGVPSRFSGSGSGTDFSFTISSLEPEDVAVYYCGQSYSYPPTFGAGTKVELKR", "readoutValue": 0.00192}

For the next question, use this binder.
Consider 7475-H3K3-canIgGB (antibody, V domains shown) VH: EVQLVESGGDLVKPGGSLRLSCVASGFTFSSYAMSWVRQAPGKGLQWVARISNGGDYIFYADTVKGRFTISRDNAKNTLYLQMNSLRAEDTAMYYCTRRGHYNTSSYWYFDVWGQGTLVTVSS VL: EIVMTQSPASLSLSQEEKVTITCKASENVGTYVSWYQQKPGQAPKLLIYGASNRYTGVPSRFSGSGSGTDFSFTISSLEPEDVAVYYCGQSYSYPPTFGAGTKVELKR . Its measured koff is 0.00204

// provenance: patent EP4745156A1
